Target: T1, TFB2M T313E (human, UniProt Q9H5Q4 21-396, T313E)
T1 sequence: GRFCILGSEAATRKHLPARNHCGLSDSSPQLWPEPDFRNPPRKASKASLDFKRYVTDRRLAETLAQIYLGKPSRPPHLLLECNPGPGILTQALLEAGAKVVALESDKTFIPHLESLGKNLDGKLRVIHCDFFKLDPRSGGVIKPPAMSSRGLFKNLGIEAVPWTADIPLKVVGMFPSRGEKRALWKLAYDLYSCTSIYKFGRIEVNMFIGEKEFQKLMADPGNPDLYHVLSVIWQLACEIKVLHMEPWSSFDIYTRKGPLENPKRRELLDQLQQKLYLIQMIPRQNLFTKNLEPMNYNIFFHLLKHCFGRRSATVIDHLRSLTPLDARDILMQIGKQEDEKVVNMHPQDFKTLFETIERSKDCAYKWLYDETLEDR
Experiment: fluorescence anisotropy
OUTCOME_MEASURE: Kd

Challenge: Recall and state the measured Kd for LSP (-17 to +19), fluorescein (dsDNA) DNA 1: AAAAGTGCATACCGCCAAAAGATAAAATTTGAAATC DNA 2: GATTTCAAATTTTATCTTTTGGCGGTATGCACTTTT .
Response given: > 150 nM
